Recorded pIC50 by entry
Tested on: RBL-2H3
Test: Antiallergic activity against antigen-IgE-mediated degranulation in rat RBL2H3 cells assessed as inhibition of DNP-BSA-induced beta-hexosaminidase release preincubated for 10 mins before DNP-BSA challenge measured after 10 mins
Format: functional, cell-based
pIC50: −log10 of the molar value. Structures can show the parent of a compound that is named as a salt.
PROPERTY LABEL: pIC50

{"columns": ["COMPOUND", "RELATION SIGN", "VALUE OBSERVED"],
 "data": [
  ["CC(=O)Oc1ccc(C(OC(C)=O)c2ccccc2)cc1 (configuration not stated)", "=", 4.85],
  ["CC(=O)Oc1ccc(C(O)c2ccccc2)cc1 (configuration not stated)", "<", 4.00],
  ["CCC(=O)Oc1ccc(C(OC(=O)CC)c2ccccc2)cc1 (configuration not stated)", "=", 4.42],
  ["CC(=O)Oc1ccc(C(OC(=O)C(C)C)c2ccccc2)cc1 (configuration not stated)", "=", 4.57],
  ["CC(=O)Oc1ccc(C(OC(=O)c2ccccc2)c2ccccc2)cc1 (configuration not stated)", "=", 4.77],
  ["O=COc1ccc(C(OC=O)c2ccccc2)cc1 (configuration not stated)", "<", 4.00],
  ["COC(=O)Oc1ccc(C(OC(=O)OC)c2ccccc2)cc1 (configuration not stated)", "=", 4.74],
  ["CN1CCC(=C2c3ccccc3CC(=O)c3sccc32)CC1 [KETOTIFEN FUMARATE]", "=", 3.80],
  ["CC(C)C(=O)Oc1ccc(C(OC(=O)C(C)C)c2ccccc2)cc1 (configuration not stated)", "<", 4.00],
  ["COC(=O)OC(c1ccccc1)c1ccc(OC(C)=O)cc1 (configuration not stated)", "=", 5.19],
  ["C=CC(=O)Oc1ccc(C(OC(=O)C=C)c2ccccc2)cc1 (configuration not stated)", "=", 4.55],
  ["CC(=O)Oc1ccc(C(OC(=O)C(C)(C)C)c2ccccc2)cc1 (configuration not stated)", "=", 4.44]
]}
